Every entry's value here was drawn from PubChem BioAssay AID1159580.

assay: chemical genetic growth profiling, strain panel (AID 1159580);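 note: tested at 20 µM; growth read once vehicle control cultures reached saturation at 30 °C; 1 = growth at the plate median or of vehicle wells; lower values mean less growth of the strain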; settings: S. cerevisiae deletion strains, growth OD, locus YAL040C, strain CLN3, stronger effect = lower value
Screen size: about 5,500 compounds; about 2,000 (36%) were called active. Inconclusive results (about 18%) are left out. Some of the results follow.
Let's look at some compounds and their measured normalized growth.

Compound	normalized growth
CCCCC/C=C\C/C=C\C/C=C\C/C=C\CCCC(=O)NCC(=O)O	1.02
CN1CCN(CCCN2c3ccccc3Sc3ccc(Cl)cc32)CC1	0.97
O=C1C=CC(=O)C=C1	0.986
COc1ccc2[nH]cc(CCNC(C)=O)c2c1	0.996
NCCS	0.985
CCCCCCC/C=C\CCCCCCCCC(=O)O	1.01
NC(N)=N[C@@H](CCC(=O)O)C(=O)O	1.09
O=c1[nH]c2ccccc2n1CCCN1CCN(C(c2ccccc2)c2ccccc2)CC1	1.02
CN(C)c1nc(N(C)C)nc(N(C)C)n1	0.972
NC(=S)c1ccc[n+]([C@@H]2O[C@@H](COP(=O)([O-])OP(=O)(O)OC[C@H]3O[C@@H](n4cnc5c(N)ncnc54)C(OP(=O)(O)O)[C@H]3O)C(O)C2O)c1 (stereo partly drawn)	1.03
C=CCN1CCC23c4c5ccc(O)c4O[C@H]2C(=O)CC[C@@]3(O)C1C5 (stereo partly drawn)	1
C[C@]12C=CC(=O)C=C1CC[C@H]1[C@@H]3C[C@@H](O)[C@](O)(C(=O)CO)[C@@]3(C)C[C@H](O)[C@@]12F	1.02
CC(N)=NCc1cccc(CN)c1	1.01
COc1ccc(-n2nc(C(F)(F)F)cc2-c2ccc(Cl)cc2)cc1	1.09
O=C(O)CNC(=O)C(CS)Cc1ccccc1 (stereo not drawn)	1.05
C=CCN1CC[C@]23CCCCC2[C@H]1Cc1ccc(O)cc13 (stereo partly drawn)	1.01
C#CCN1C(C)=C(C(=O)OC)C(c2cccc([N+](=O)[O-])c2)C(C(=O)OCC)=C1C (stereo not drawn)	0.971
C[N+](C)(C)CC=O	0.989

---

assay: chemical genetic growth profiling, strain panel (AID 1159580); conditions: S. cerevisiae deletion strains, growth OD, locus YHR129C, strain ARP1
Out of some 5,500 compounds screened, about 2,000 (36%) were called active. About 18% were inconclusive and are not listed. Cut-off read from the data, not from the text of the source: active = normalized growth mostly below about 0.91 (no sharp cut-off); inconclusive = no clear call, values can overlap the other calls; inactive = mostly above about 0.92. The list shows a part of the results.
Possible outcomes: TRUE = active, FALSE = inactive

> print(dat)
                                    compound  class.name
 1  CC(C)CCCC(C)C1CCC2C3CCC4CC(=O)CCC4(C)C3CCC12C (centres undefined)       FALSE
 2  COc1ccc2c(=O)c(-c3cc4c(cc3OC)OCO4)coc2c1       FALSE
 3               c1coc(CNc2ncnc3nc[nH]c23)c1       FALSE
 4            O=C1c2ccccc2C(=O)c2c1ccc(O)c2O        TRUE
 5            C=C(C)c1cc2cc(C(C)=O)c(O)cc2o1       FALSE
 6             COc1ccc2c(c1)[nH]c1c(C)nccc12       FALSE
 7          CC(C)=CCOc1c2occc2cc2ccc(=O)oc12        TRUE
 8  CC1=C(C(=O)O)N2C(=O)[C@@H](NC(=O)[C@H](N)C3=CCC=CC3)C2SC1 (some centres undefined)       FALSE
 9  O=C(CCCN1CC=C(n2c(=O)[nH]c3ccccc32)CC1)c1ccc(F)cc1       FALSE
10  CC(=O)OC1CCC23C(=O)OC45CCC(C6=CC(=O)OC6)C4(C)CCC2C5CCC3(O)C1 (centres undefined)       FALSE
11                       COc1cc(O)c(C)c(O)c1       FALSE
12                         Nc1ncnc2nc[nH]c12        TRUE
13              CC(=O)N[C@@H](CC(=O)O)C(=O)O       FALSE
14             COP(=S)(OC)SCn1nnc2ccccc2c1=O       FALSE

---

Let's look at some compounds and their measured normalized growth.
test: chemical genetic growth profiling, strain panel (AID 1159580);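 note: tested at 20 µM; growth read once vehicle control cultures reached saturation at 30 °C; 1 = growth at the plate median or of vehicle wells; lower values mean less growth of the strain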; settings: S. cerevisiae deletion strains, growth OD, locus YDL214C, strain PRR2, stronger effect = lower value
About 2,000 (36%) of roughly 5,500 compounds were called active. Another 18% or so got no clear call; they are omitted. This is one part of the list.
Assay endpoint: normalized growth

> print(dat)
                   compound.structure.string     assay.endpoint            result
 1      CC(/C=C/c1ccccc1)=N/OC(=O)c1ccccc1Cl  normalized growth  0.902 (inactive)
 2           Cc1ccc(C(=O)Nc2ccc3ccccc3n2)cc1  normalized growth   0.92 (inactive)
 3  O=C(NNc1c(Cl)cccc1Cl)c1ccc([N+](=O)[O-])o1  normalized growth  0.895 (inactive)
 4  Cc1c(NCN2C(=O)CCC2=O)cc2c(c1[N+](=O)[O-])C(C)(C)CC2(C)C  normalized growth  0.925 (inactive)
 5    O=C1CSC(=Nc2cc(Cl)cc(Cl)c2)N1Cc1cccnc1  normalized growth  0.924 (inactive)
 6  O=C(Nc1ccc(OC(F)(F)F)cc1)Nc1cncc(C(F)(F)F)c1  normalized growth  0.913 (inactive)
 7   O=C(Nc1ccc(Cl)cc1)c1csc([N+](=O)[O-])c1  normalized growth  0.874 (inactive)
 8  COc1ccc(/C(C#N)=C2C=C/C(=N/O)C(Cl)=C\2)cc1  normalized growth  0.918 (inactive)
 9  FC(F)(F)c1ccc(NC(=S)Nc2ccc(C(F)(F)F)cc2Cl)c(Cl)c1  normalized growth  0.921 (inactive)
10   N#C/C(=N/Nc1ccc(C(F)(F)F)cc1)C(=O)C1CC1  normalized growth  0.904 (inactive)

---

assay: chemical genetic growth profiling, strain panel (AID 1159580);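 note: tested at 20 µM; growth read once vehicle control cultures reached saturation at 30 °C; 1 = growth at the plate median or of vehicle wells; lower values mean less growth of the strain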; details: S. cerevisiae deletion strains, growth OD, locus YML094W, strain GIM5
Out of some 5,500 compounds screened, about 2,000 (36%) were called active. About 18% were inconclusive and are not listed. Cut-off read from the data, not from the text of the source: active = normalized growth mostly below about 0.91 (no sharp cut-off); inconclusive = no clear call, values can overlap the other calls; inactive = mostly above about 0.92. The list shows a part of the results.
Possible outcomes: active, inactive

> print(dat)
                   compound.structure.string  class.name
 1  CC(=O)NN(C)c1ccc(C(F)(F)F)cc1[N+](=O)[O-]    inactive
 2  Cc1ccc(/C(C#N)=C2C=C/C(=N/O)C(Cl)=C\2Cl)cc1    inactive
 3  Cc1cc(C)c(C(=O)NCCNc2ccc(C(F)(F)F)cc2[N+](=O)[O-])c(C)c1      active
 4              CC(=O)CSc1nsc(SCC(C)=O)c1C#N    inactive
 5  CCc1cccc(C)c1NC(=O)N1CCN(C(=O)OC(C)(C)C)CC1    inactive
 6   S=c1[nH]nc(-c2ccco2)n1-c1ccc2c(c1)OCCO2    inactive
 7                NNC(=S)Nc1ccc(C(F)(F)F)cc1      active
 8           COc1ccccc1N=C1SCC(=O)N1Cc1ccco1    inactive
 9  COc1ccccc1N1CCN(S(=O)(=O)c2ccc(C(F)(F)F)cc2)CC1    inactive
10            COC(=O)c1ccccc1-n1cccc1C(=O)OC    inactive
11                      COc1cc(Cl)c(Cl)cc1Cl    inactive
12                      COc1cccc(CC(=O)NN)c1    inactive
13  O=C(c1ccc(Cl)cc1)N1CCN(c2ccc(C(F)(F)F)cn2)CC1      active
14                FC(F)(F)c1ccc(-n2cncn2)nc1    inactive
15  O=C(CSc1nnc(-c2ccco2)n1-c1ccc2c(c1)OCCO2)c1cccc(F)c1    inactive
16                   CCOC(=N)c1ccc(F)c(Cl)c1    inactive

---

assay: chemical genetic growth profiling, strain panel (AID 1159580);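 note: tested at 20 µM; growth read once vehicle control cultures reached saturation at 30 °C; 1 = growth at the plate median or of vehicle wells; lower values mean less growth of the strain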; details: S. cerevisiae deletion strains, growth OD, locus YJL164C, strain tpk1, stronger effect = lower value
Among all 5,500 compounds or so, about 2,000 (36%) were called active. Not shown: some 18% with an inconclusive outcome. Some of the results follow.
Let's look at some compounds and their measured normalized growth.
Assay endpoint: normalized growth

> print(dat)
                                   compound     assay.endpoint  number
1  CC(C(=O)O)c1ccc(N2Cc3ccccc3C2=O)cc1 (centres undefined)  normalized growth   0.988
2          CC(C)=CCC1=C(O)c2ccccc2C(=O)C1=O  normalized growth   0.775
3                 Cc1ncc([N+](=O)[O-])n1CCO  normalized growth   0.996
4            O=C1c2ccccc2C(=O)c2c1ccc(O)c2O  normalized growth   0.414
5  CC1=C2CCC3C(CC[C@]4(C)C(=O)CCC34)[C@@]2(C)CCC1=O (some centres undefined)  normalized growth   0.938
6              O=C1c2ccccc2-c2cccc3cccc1c23  normalized growth   0.868
7                        O=C(O)c1cccc(O)c1O  normalized growth       1
8                  COc1cc(O)c(C(=O)O)c(O)c1  normalized growth    1.02
9    O=C1c2ccc(O)c(O)c2C(=O)c2c(O)ccc(O)c21  normalized growth   0.545
